# experiment description: Single-dose toxicity test
# Format: in vivo
# experimental parameters: mouse, in vivo; single dose
metric name: LD50

O=C(O)c1cc(NCCc2ccc(C(F)(F)F)cc2)ccc1O [compound 2]    > 3000 mg/kg
CC(=O)Oc1ccc(NCCc2ccc(C(F)(F)F)cc2)cc1C(=O)O [compound 18]    > 3000 mg/kg

[in] Fill in the blank: the reported LD50 of O=C(O)c1cc(NCCc2ccccc2Cl)ccc1O [compound 19] is ____.
[out] 500 to 1000 mg/kg
